These entries and their values trace back to patent US20210214560A1.

- assayProcedure: Evaluation of heat stability (heat resistance), powder heated at 180° C. for 5 minutes
- Format: physicochemical
- studyConditions: oven 180° C. for 5 minutes, A/A0×100, absorbance in tetrahydrofuran
Residual rate of compound less than 80% is MET; Residual rate of compound greater than or equal to 80% is NOT MET.

Say whether its Residual rate of compound is strictly beneath 80%. Entry: CC1(CC(N)=O)Nc2cccc3c(N=Nc4ccc(N=Nc5ccccc5Cl)c5ccccc45)ccc(c23)N1 (stereo not shown)
MET

Same again, this time with CC1(C)Nc2cccc3c(N=Nc4ccc(N=Nc5ccccc5Cl)c5ccccc45)ccc(c23)N1
NOT MET

Please answer likewise for CC(=O)c1ccccc1N=Nc1ccc(N=Nc2ccc3c4c(cccc24)NC(C)(C)N3)c2ccccc12
NOT MET

Would you mind doing CC1(Cc2ccccc2)Nc2cccc3c(N=Nc4ccc(N=Nc5ccccc5Cl)c5ccccc45)ccc(c23)N1 (stereo not shown) as well?
MET

Next molecule: CCC1(C)Nc2cccc3c(N=Nc4ccc(N=Nc5ccccc5Cl)c5ccccc45)ccc(c23)N1 (stereo not shown)
NOT MET

// repeat for CC1(CO)Nc2cccc3c(N=Nc4ccc(N=Nc5ccccc5Cl)c5ccccc45)ccc(c23)N1 (stereo not shown) and report
NOT MET

For CC1(C)Nc2cccc3c(N=Nc4ccc(N=Nc5ccccc5F)c5ccccc45)ccc(c23)N1 then?
NOT MET

Now try CCCCCC1(C)Nc2cccc3c(N=Nc4ccc(N=Nc5ccccc5C(C)=O)c5ccccc45)ccc(c23)N1 (stereo not shown) .
NOT MET

And the next one, CC1(C)Nc2cccc3c(N=Nc4ccc(N=Nc5ccccc5[N+](=O)[O-])c5ccccc45)ccc(c23)N1 ?
NOT MET

Now consider CC(C)NC(=O)OCC1(C)Nc2cccc3c(N=Nc4ccc(N=Nc5ccccc5Cl)c5ccccc45)ccc(c23)N1 (stereo not shown) .
NOT MET

Lookup CC(C)C1(C)Nc2cccc3c(N=Nc4ccc(N=Nc5ccccc5Cl)c5ccccc45)ccc(c23)N1 (stereo not shown)
NOT MET

Next molecule: CCCCCC1(C)Nc2cccc3c(N=Nc4ccc(N=Nc5ccccc5Cl)c5ccccc45)ccc(c23)N1 (stereo not shown)
NOT MET

###

- assayProcedure: Evaluation of maximum absorption wavelength (absorption spectrum in tetrahydrofuran solution)
- Assay type: physicochemical
- studyConditions: 1×10^−6 mol/L, optical path length 10 mm (Table 9)
Would you mind telling me the reported Molar light absorption coefficient of each entry?
Write the answer as a number in L/mol/cm, unit excluded.

So what does the record say about Molar light absorption coefficient for CC1(C)Nc2cccc3ccc(N=Nc4ccc(N=Nc5ccccc5C#N)c5ccccc45)c(c23)N1 ?
30500

Try CC(=O)c1ccccc1N=Nc1ccc(N=Nc2ccc3cccc4c3c2NC(C)(C)N4)c2ccccc12 next.
36100

Record: COC(=O)c1ccccc1N=Nc1ccc(N=Nc2ccc3cccc4c3c2NC(C)(C)N4)c2ccccc12
29200

Then CC1(C)Nc2cccc3ccc(N=Nc4ccc(N=Nc5ccccc5)c5ccccc45)c(c23)N1 [Comparative compound D, reference compound] ?
34200

Also CCCCCC1(C)Nc2cccc3ccc(N=Nc4ccc(N=Nc5ccccc5Cl)c5ccccc45)c(c23)N1 (stereo not shown) , if possible.
34800

Would you mind doing CC1(C)Nc2cccc3c(N=Nc4ccc(N=Nc5ccccc5)c5ccccc45)ccc(c23)N1 [Comparative compound C, reference compound] as well?
32000

Same thing, different molecule: CC1(C)Nc2cccc3ccc(N=Nc4ccc(N=Nc5ccccc5F)c5ccccc45)c(c23)N1
36000
